tested on: SF-539 CNS; assay: NCI tumour cell line growth inhibition, 48 h
Reported TGI values follow for various compounds

Solved entries (count: 5):
The value of TGI measured for the compound [N-]=[N+]=Nc1ccc(NCCCCCC(=O)ON2C(=O)CCC2=O)c([N+](=O)[O-])c1 turned out to be > 100 µM

The value of TGI measured for the compound COc1c(C2=NC(C(C)C)CO2)ccc2ccccc12 (stereo not given) turned out to be > 100 µM

The value of TGI measured for the compound Cc1cc(C)nc(NS(=O)(=O)c2ccc(NN=c3c4ccccc4n(C)c4ccccc34)cc2)n1 turned out to be > 100 µM

The value of TGI measured for the compound CSc1ccccc1P(c1ccccc1SC)c1ccccc1SC turned out to be > 100 µM

The value of TGI measured for the compound Cc1cc(=O)oc2c(CN3CCCCC3)c(O)ccc12 turned out to be > 100 µM

Continuing:
The value of TGI measured for the compound CC(C)(C)N/N=C(\Cc1occc(=O)c1O)C(=O)Nc1ccc([N+](=O)[O-])cc1[N+](=O)[O-] turned out to be > 100 µM

The value of TGI measured for the compound O=c1cc(CO)n(CCc2c[nH]c3ccccc23)cc1O turned out to be > 100 µM

The value of TGI measured for the compound CC(=O)[CH-]C(=O)c1ccccc1.CC(=O)[CH-]C(=O)c1ccccc1.COc1cccc([O-])c1[O-].[Ti+4] turned out to be 65.6 µM

The value of TGI measured for the compound Clc1cc(OCc2nn3c(Cc4ccccc4)nnc3s2)ccc1OCc1nn2c(Cc3ccccc3)nnc2s1 turned out to be > 100 µM

The value of TGI measured for the compound CN(C)CCNc1ccc2ncnc3c2c1C(=O)c1ccccc1-3 turned out to be 17 µM

---

tested on: U251 CNS; assay: NCI tumour cell line growth inhibition, 48 h
Reported TGI values follow for various molecules

Recorded TGI for [N-]=[N+]=Nc1ccc(NCCCCCC(=O)ON2C(=O)CCC2=O)c([N+](=O)[O-])c1 on U251 CNS was > 100 µM

Recorded TGI for COc1ccc(CN2C(=O)C(Cc3cc(OC)c(OC)c(C)c3OC)NC(=O)/C2=C/c2cc(OC)c(OC)c(C)c2OC)cc1 (stereo not given) on U251 CNS was > 100 µM

Recorded TGI for CC1(C)CCC[C@@]2(C)C1C[C@H](O)[C@@]1(C)O[C@@](C)([C@H](O)CO)CCC21 (stereo not given in full) on U251 CNS was > 100 µM

Continuing:
Recorded TGI for CN(CCC#N)c1ccc(/C=C(\C#N)c2cccc(C(F)(F)F)c2)cc1 on U251 CNS was > 100 µM

Recorded TGI for Oc1ccc(Cl)cc1-c1[nH]c(=S)nc(-c2ccccc2)c1Cl on U251 CNS was 97.9 µM

---

Reported TGI values follow for various compounds
tested on: RXF 393 renal; test: NCI tumour cell line growth inhibition, 48 h

Solved entries (count: 2):
The value of TGI measured for the compound O=C(c1ccco1)C1CC(c2ccc3ccccc3c2O)=NN1 (stereo not drawn) turned out to be > 100 µM

The value of TGI measured for the compound N=C(N)C1CN(CCc2cnc[nH]2)C(=O)NC1=O (stereo not drawn) turned out to be > 100 µM

Now for the compound whose TGI we want.
The value of TGI measured for the compound O=C(Cc1nc2ccccc2c(=O)n1-c1c(Cl)cccc1Cl)c1ccncc1 turned out to be 65.7 µM

---

tested on: MCF7 breast; assay: NCI tumour cell line growth inhibition, 48 h
Reported TGI values follow for various compounds
Express the result in µM but write the number alone.

The value of TGI measured for the compound Cc1cc(N2CCN(C)CC2)nc(NCc2cc(Nc3ccnc4cc(Cl)ccc34)ccc2F)n1 turned out to be 2.75

Now for the compound whose TGI we want.
The value of TGI measured for the compound COc1cc(/C=N/Nc2ncnc3c2cnn3C(C)C)ccc1O turned out to be 16.1

---

tested on: NCI-H226 lung; test: NCI tumour cell line growth inhibition, 48 h
Recorded endpoint: TGI

The value of TGI measured for the compound NCC[Se][Se]CCN turned out to be 29.1 µM

The value of TGI measured for the compound FC(F)(F)c1nc2ccc(SSc3ccc4nc(C(F)(F)F)[nH]c4c3)cc2[nH]1 turned out to be > 100 µM

The value of TGI measured for the compound Cc1nc2ccccc2c(=O)n1/N=C(\N=Nc1cc(Cl)ccc1Cl)c1cccc(-c2ccco2)c1 turned out to be > 100 µM

---

test system: SK-MEL-28 melanoma; experiment: NCI tumour cell line growth inhibition, 48 h; in the data active = GI50 below about 0.43 µM; inactive = the rest
Field 'call' accepts 1 for active, -1 for inactive

Solved entries:
Name the outcome recorded for COc1cc(-c2nn(-c3ccc(NC(=O)Nc4ccc(Cl)c(Cl)c4)cc3)cc2-c2ccncc2)ccc1Cl in the assay.
-1

Name the outcome recorded for O=C(/C=C/c1ccccc1)c1c[nH]c2ccccc2c1=O in the assay.
-1

Consider the record given below.
Name the outcome recorded for CC[C@@]1(OC(=O)CN)C(=O)OCc2c1cc1n(c2=O)Cc2cc3cc4c(cc3nc2-1)OCO4 in the assay.
1

---

tested on: NCI-H23 lung; assay: NCI tumour cell line growth inhibition, 48 h
Reported TGI values follow for various compounds

Solved entries (count: 2):
The value of TGI measured for the compound CNC(C)Cc1ccccc1O (stereo not given) turned out to be > 100 µM

The value of TGI measured for the compound O=S1CSCS1 (stereo not given) turned out to be > 100 µM

Continuing:
The value of TGI measured for the compound O=c1oc2cc(N=Cc3ccccc3Cl)ccc2c2ccccc12 turned out to be > 100 µM

The value of TGI measured for the compound Cc1cccc2[nH]c3cc(O)cc(O)c3c(=O)c12 turned out to be > 10 µM

The value of TGI measured for the compound O=C(C/C(=N\NC(=O)C[n+]1ccccc1)C(=O)Nc1nc2ccc([N+](=O)[O-])cc2s1)CC(c1ccccc1)c1c(O)c2ccccc2oc1=O (stereo not given) turned out to be > 100 µM

The value of TGI measured for the compound Oc1[nH]c2ccccc2c1N=NC(=S)N1CCCCC1 turned out to be 9.14 µM

The value of TGI measured for the compound O=c1[nH]c(=O)n(C2CC(O)C(CO)O2)cc1NN=NCCc1ccccc1 (stereo not given) turned out to be > 100 µM

The value of TGI measured for the compound O=C1NCN(c2ccccc2)C12CCN(CCc1ccc3[nH]c(=S)[nH]c3c1)CC2 turned out to be > 100 µM

The value of TGI measured for the compound CCN(CC)c1ccc2c(c1)OC(=O)C(c1nnc(-c3ccc([N+](=O)[O-])cc3)o1)C2 (stereo not given) turned out to be > 100 µM

The value of TGI measured for the compound Cc1oc2nc[nH]c(=O)c2c1C(=O)/C=C/c1ccc(Cl)cc1 turned out to be 15.3 µM

The value of TGI measured for the compound COc1cccc(/C(CC(O)(C(F)(F)F)C(F)(F)F)=N\N(C)C)c1 turned out to be > 100 µM

The value of TGI measured for the compound O=c1[nH]c(=O)n(C2CC(O)C(CO)O2)cc1OCCc1ccccc1 (stereo not given) turned out to be > 100 µM

The value of TGI measured for the compound Oc1c(C(Nc2cccc3ccccc23)c2ccccc2)ccc2cccnc12 (stereo not given) turned out to be 27.5 µM

The value of TGI measured for the compound COC(=O)c1ccccc1/C=C1/Cc2cccc(C)c2C1=O turned out to be > 100 µM

The value of TGI measured for the compound COc1cc2c(c(OC)c1OC)C(=O)CC(c1cccc(NC(=O)c3ccc(Br)cc3)c1)O2 (stereo not given) turned out to be > 100 µM

The value of TGI measured for the compound O=C(Cn1c(=O)c(-c2ccccc2)nc2ccccc21)c1ccc(Cl)cc1 turned out to be > 100 µM

The value of TGI measured for the compound CC1C2=C(CC(C)(C)CC2=O)NC2=C1C(=O)CC(C)(C)C2 turned out to be > 100 µM

The value of TGI measured for the compound CC[C@@]1(OC(=O)CN)C(=O)OCc2c1cc1n(c2=O)Cc2cc3cc4c(cc3nc2-1)OCO4 turned out to be < 0.0128 µM

The value of TGI measured for the compound [N-]=[N+]=Nc1ccc(NCCCCCC(=O)ON2C(=O)CCC2=O)c([N+](=O)[O-])c1 turned out to be > 100 µM

The value of TGI measured for the compound N=Nc1c(OC(=O)Nc2ccccc2)[nH]c2ccccc12 turned out to be 33.2 µM

---

Reported TGI values follow for various compounds
system: UO-31 renal; assay: NCI tumour cell line growth inhibition, 48 h

The value of TGI measured for the compound O=C1c2cccc3cccc(c23)C(=O)N1CCCNCCCCNCCCN1C(=O)c2cccc3cccc(c23)C1=O turned out to be 5.51 µM

The value of TGI measured for the compound O=C(COc1ccc(/C=C2\Oc3ccccc3C2=O)cc1)Nc1nccs1 turned out to be > 100 µM

The value of TGI measured for the compound CC(C)(C)OC(=O)NC1CC=CCC1NC(=O)OC(C)(C)C (stereo unspecified) turned out to be > 100 µM

The value of TGI measured for the compound C=C(C)C#CC(O)(C(=O)OC1CCN(C)CC1)C(C)C (stereo unspecified) turned out to be > 100 µM

The value of TGI measured for the compound CCNC(C)(C)C(SS)c1ccc(Br)cc1 (stereo unspecified) turned out to be > 100 µM

The value of TGI measured for the compound Cc1cc2cccnc2c2ncccc12 turned out to be 4.15 µM

Continuing:
The value of TGI measured for the compound O=S1CSCS1 (stereo unspecified) turned out to be > 100 µM
